experiment: Phase-1 drug-drug interaction study in healthy volunteers (Compound (III) 800 mg, SMV 150 mg, Odalasvir 150 mg loading then 50 mg, once daily): plasma PK; assay type: in vivo, human; conditions: both sexes, human, plasma, oral, Group 1, Day 20 (ODV + SMV); read-out: AUC0-24
outcomeMeasure: AUC0-24
Returns: string containing the numeric result and its unit.

### Prompt Give me measured AUC0-24, please, for this compound: COC(=O)N[C@H](C(=O)N1[C@H](c2nc3cc(-c4cc5ccc4CCc4ccc(c(-c6ccc7[nH]c([C@@H]8C[C@@H]9CCCC[C@@H]9N8C(=O)[C@@H](NC(=O)OC)C(C)C)nc7c6)c4)CC5)ccc3[nH]2)C[C@@H]2CCCC[C@@H]21)C(C)C
### Response 10800 ng·h/mL

Values compiled from patent US20170087174A1.
